meta.source: PubChem BioAssay (NCATS)

- test_description: NS1 protein of Zika virus - qHTS assay to identify small molecule inhibitors in human HEK 293 cells (AID 1347053); note: nearly all actives have a fitted effect of over 55% in size
- condition_summary: HEK293 ZIKV MR766 infection, NS1 TR-FRET, 24 h; series mostly up to 46.1 µM
Records with an inconclusive call do not appear. Calls of active or inactive are those of the source. Calls come from the whole dose curve; as a rule, active = well fitted inhibition curve with a large enough effect; inconclusive = small, poorly fitted or top-dose-only effect; inactive = no such curve, though single readings can be large or run the other way.
Possible outcomes: active, inactive

INSERT INTO measurements (compound, class_label) VALUES
  ('CCCN1CCC[C@H](c2cccc(O)c2)C1', 'inactive'),
  ('CCCCCCCCCC(CC)c1ccc(S(=O)(=O)O)cc1 (stereo not given)', 'inactive'),
  ('Nc1ccc(Cl)cc1N', 'inactive'),
  ('Oc1ccc2c3c1O[C@H]1c4[nH]c5c(c4C[C@@]4(O)[C@@H](C2)N(CC2CC2)CC[C@]314)C[C@@]1(O)[C@H]2Cc3ccc(O)c4c3[C@@]1(CCN2CC1CC1)[C@H]5O4', 'inactive'),
  ('CCCCCCCCc1ccc(O)cc1', 'inactive'),
  ('NC(N)=NOCCC(N)C(=O)O (stereo not given)', 'inactive'),
  ('CC(C)(C)NC[C@H](O)c1ccc(O)cc1Cl', 'inactive'),
  ('Cc1c(N)nc([C@H](CC(N)=O)NC[C@@H](N)C(N)=O)nc1C(=O)N[C@H](C(=O)N[C@@H](C)[C@H](O)[C@@H](C)C(=O)N[C@@H](C(=O)NCCc1nc(-c2nc(C(=O)NCCC[S+](C)C)cs2)cs1)[C@@H](C)O)C(O[C@H]1O[C@H](CO)[C@H](O)[C@@H](O)[C@@H]1O[C@H]1O[C@H](CO)[C@@H](O)[C@H](OC(N)=O)[C@H]1O)c1cnc[nH]1 (stereo not given in full)', 'active'),
  ('O=C(O)COc1nc(Cl)c(Cl)cc1Cl', 'inactive'),
  ('O=C(Oc1ccc([N+](=O)[O-])cc1)N1CCC(C(O)(c2ccc3c(c2)OCO3)c2ccc3c(c2)OCO3)CC1', 'inactive');

###

- test_description: qHTS for identification of novel therapeutic agents for treatment of microphthalmiaassociated transcription factor (MiT) renal cell carcinoma (RCC) (AID 1963991);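 note: curves scaled with 100% = DMSO viability and 0% = empty wells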
- condition_summary: TFE3-RCC viability, CellTiter-Glo, 48 h; measured here: UOK124 Z-AUC; stronger effect = lower value
Records with an inconclusive call do not appear.
measured_metric: z-score

INSERT INTO assay_data (molecule, recorded_result) VALUES
  ('O=C(Nc1ccncc1)C(=O)c1cn(Cc2ccc(Cl)cc2)c2ccccc12', -1.43),
  ('CC[C@@H]1[C@@H](C)O[C@@](O)([C@@H](C)[C@H](O)[C@H](C)[C@H]2OC(=O)C=CC=C[C@@H](C)[C@@H]([C@@H](C)[C@@H](O)[C@H](C)[C@@]3(O)C[C@H](O[C@H]4C[C@H](O)[C@H](O)[C@H](C)O4)[C@H](CC)[C@@H](C)O3)OC(=O)C=CC=C[C@@H]2C)C[C@H]1O[C@H]1C[C@H](O)[C@H](O)[C@H](C)O1', -2.49),
  ('CC(=CCCC1=CCC(C2=CC(=O)OC2O)OC1O)CCC1=C(C)CCCC1(C)C (stereo not drawn)', 0.534),
  ('COc1cc([C@@H]2c3cc4c(cc3[C@@H](O)C3COC(=O)C32)OCO4)cc(OC)c1O (stereo partly drawn)', -1.93),
  ('C[C@]12COC(=O)C[C@@H]1CC[C@@H]1[C@H]2CC[C@@]2(C)[C@H]1CC[C@]2(C)O', 0.76),
  ('CC(C)N(CCNC(=O)CN1CCCC1=O)C(C)C', 0.437),
  ('CSCC[C@@H](NC(=O)[C@@H](Cc1ccccc1)NC(=O)CNC(=O)CNC(=O)[C@@H](N)Cc1ccc(O)cc1)C(=O)O', 0.642),
  ('Cc1ccccc1-n1c(Cn2ncc3c(N)ncnc32)nc2cccc(C)c2c1=O', -1.03);
